Test: xn = mol fraction of the nth substance listed
Conditions: 308.15 K; 1993 kPa; Liquid; absorption in thin film; x2 = 0
Each record here notes measured binary diffusion coefficient.
parameter measured: binary diffusion coefficient (m2/s)

CCn1cc[n+](C)c1.N#C[C-](C#N)C#N [1-ethyl-3-methyl-1H-imidazolium tricyanomethanide] + O=C=O ... 4.1e-10
CCCCCC[n+]1ccn(C)c1.N#C[C-](C#N)C#N [3-hexyl-1-methylimidazolium tricyanomethanide] + O=C=O ... 4.1e-10
CCCCCCCCn1cc[n+](C)c1.N#CC(=C=[N-])C#N [1-methyl-3-octylimidazolium tricyanomethanide] + O=C=O ... 3.9e-10
CCCCCCCn1cc[n+](C)c1.N#C[C-](C#N)C#N [1-heptyl-3-methylimidazolium tricyanomethanide] + O=C=O ... 4.2e-10
